Protocol Details: Cytotoxicity in AML12HBV10 cells (MTT assay)
Type: cell-based, murine
Condition Notes: mouse, concentration that reduces viability by 50%, serial dilution 50 μM to 0.39 μM

[
  {
    "Molecule": "O=C(Nc1cccc(Cl)c1)c1c(Cl)cccc1Cl [Entry 16]",
    "CC50 at 48 h": "> 50 µM"
  },
  {
    "Molecule": "O=C(Nc1cccc(Cl)c1)c1cccc2c1OCCO2 [Entry 19]",
    "CC50 at 48 h": "> 50 µM"
  },
  {
    "Molecule": "O=C(Nc1cccc(OC(F)(F)F)c1)c1cccc2c1OCCO2 [Entry 27]",
    "CC50 at 48 h": "> 10 µM"
  },
  {
    "Molecule": "O=C(Nc1cccc(Cl)c1)c1c(F)cccc1F [Entry 15]",
    "CC50 at 48 h": "> 50 µM"
  },
  {
    "Molecule": "O=C(Nc1ccccc1F)c1cccc2c1OCCO2 [Entry 28]",
    "CC50 at 48 h": "> 10 µM"
  },
  {
    "Molecule": "O=C(Nc1cccc(Cl)c1)c1scc2c1OCCO2 [Entry 6]",
    "CC50 at 48 h": "> 50 µM"
  },
  {
    "Molecule": "O=C(Nc1cccc(I)c1)c1ccc2ccccc2c1 [Entry 23]",
    "CC50 at 48 h": "> 50 µM"
  },
  {
    "Molecule": "O=C(Nc1cccc(Cl)c1)c1cccc(F)c1F [Entry 12]",
    "CC50 at 48 h": "> 50 µM"
  },
  {
    "Molecule": "O=C(Nc1ccc(F)c(F)c1)c1scc2c1OCCO2 [Entry 22]",
    "CC50 at 48 h": "> 50 µM"
  },
  {
    "Molecule": "O=C(Nc1ccc(F)cc1F)c1cccc(Cl)c1Cl [Entry 34]",
    "CC50 at 48 h": "> 10 µM"
  },
  {
    "Molecule": "O=C(Nc1ccc(Cl)c(F)c1)c1cccc2c1CCCC2 [Entry 45]",
    "CC50 at 48 h": "> 25 µM"
  }
]

###

System: HBV replication in AML12HBV10 cells
Protocol Details: Antiviral efficacy in AML12HBV10 cells (HBV DNA dot-blot hybridization)
Format: cell-based, Hepatitis B virus (HBV)
Condition Notes: Hepatitis B virus, AML12HBV10, 48 h, read-out: AML12HBV10 EC50, concentration that reduces the amount of HBV DNA by 50%, serial dilution 50 μM to 0.39 μM
pEC50: −log10 of the molar value.
Readout Kind: pEC50

[
  {
    "Molecule": "O=C(Nc1ccc(F)c(Cl)c1)c1cccc2c1OCCO2 [Entry 38]",
    "Readout Kind": "pEC50",
    "Experimental Value": 7.30
  },
  {
    "Molecule": "O=C(Nc1cccc(Cl)c1)c1cccc(F)c1F [Entry 12]",
    "Readout Kind": "pEC50",
    "Experimental Value": 4.52
  },
  {
    "Molecule": "O=C(Nc1cccc(OC(F)(F)F)c1)c1cccc2c1OCCO2 [Entry 27]",
    "Readout Kind": "pEC50",
    "Experimental Value": 4.95
  },
  {
    "Molecule": "O=C(Nc1ccc(F)c(F)c1F)c1cccc2c1OCCO2 [Entry 39]",
    "Readout Kind": "pEC50",
    "Experimental Value": 5.52
  },
  {
    "Molecule": "O=C(Nc1cccc(Cl)c1)c1c(F)cccc1F [Entry 15]",
    "Readout Kind": "pEC50",
    "Experimental Value": 4.51
  },
  {
    "Molecule": "O=C(Nc1ccccc1)c1scc2c1CCCC2 [Entry 2]",
    "Readout Kind": "pEC50",
    "Experimental Value": 5.05
  },
  {
    "Molecule": "O=C(Nc1ccc(Cl)c(Cl)c1)c1cccc2c1OCCO2 [Entry 35]",
    "Readout Kind": "pEC50",
    "Experimental Value": 6.31
  },
  {
    "Molecule": "O=C(Nc1ccc(Br)cc1F)c1cccc2c1OCCO2 [Entry 29]",
    "Readout Kind": "pEC50",
    "Experimental Value": 4.97
  },
  {
    "Molecule": "O=C(Nc1ccc(F)c(F)c1)c1cccc(Cl)c1Cl [Entry 33]",
    "Readout Kind": "pEC50",
    "Experimental Value": 5.73
  },
  {
    "Molecule": "O=C(Nc1ccc(F)cc1)c1scc2c1CCCC2 [Entry 3]",
    "Readout Kind": "pEC50",
    "Experimental Value": 4.60
  },
  {
    "Molecule": "O=C(Nc1c(F)cc(F)cc1F)c1cccc2c1OCCO2 [Entry 40]",
    "Readout Kind": "pEC50",
    "Experimental Value": 4.98
  },
  {
    "Molecule": "O=C(Nc1cccc(Cl)c1)c1ccccc1F [Entry 17]",
    "Readout Kind": "pEC50",
    "Experimental Value": 4.78
  },
  {
    "Molecule": "O=C(Nc1ccc(Cl)cc1F)c1cccc2c1OCCO2 [Entry 37]",
    "Readout Kind": "pEC50",
    "Experimental Value": 5.05
  },
  {
    "Molecule": "O=C(Nc1ccccc1F)c1cccc2c1OCCO2 [Entry 28]",
    "Readout Kind": "pEC50",
    "Experimental Value": 4.97
  },
  {
    "Molecule": "O=C(Nc1cccc(I)c1)c1scc2c1OCCO2 [Entry 9]",
    "Readout Kind": "pEC50",
    "Experimental Value": 5.55
  },
  {
    "Molecule": "O=C(Nc1cccc(Cl)c1)c1ccccc1 [Entry 8]",
    "Readout Kind": "pEC50",
    "Experimental Value": 4.34
  },
  {
    "Molecule": "O=C(Nc1ccc(F)c(F)c1)c1cccc2c1OCCO2 [Entry 31]",
    "Readout Kind": "pEC50",
    "Experimental Value": 6.77
  },
  {
    "Molecule": "O=C(Nc1cccc(F)c1)c1cccc2c1OCCO2 [Entry 25]",
    "Readout Kind": "pEC50",
    "Experimental Value": 6.39
  },
  {
    "Molecule": "O=C(Nc1cccc(I)c1)c1ccc2ccccc2c1 [Entry 23]",
    "Readout Kind": "pEC50",
    "Experimental Value": 4.71
  },
  {
    "Molecule": "O=C(Nc1ccc(F)c(F)c1)c1ccc2ccccc2c1 [Entry 21]",
    "Readout Kind": "pEC50",
    "Experimental Value": 4.62
  },
  {
    "Molecule": "O=C(Nc1cccc(Cl)c1)c1cccc2c1OCO2 [Entry 24]",
    "Readout Kind": "pEC50",
    "Experimental Value": 5.94
  },
  {
    "Molecule": "O=C(Nc1cccc(Cl)c1)c1cccc2ccccc12 [Entry 18]",
    "Readout Kind": "pEC50",
    "Experimental Value": 5.19
  },
  {
    "Molecule": "O=C(Nc1ccc(O)cc1)c1scc2c1CCCC2 [Entry 1]",
    "Readout Kind": "pEC50",
    "Experimental Value": 4.44
  }
]
